Tested on: SW480 (human primary colon cancer)
measurement.description: MTT cytotoxicity assay
Type: cell-based
reported.conditions: Homo sapiens, SW480, 72 h, mean SD
observable: pIC50
Would you please state pIC50, meaning minus log10 of the concentration in mol/L, as a bare number?

Here is how some molecules turned out for pIC50.
molecule	observable	measured.number
CC(C)[C@@H]1CC[C@@H](C)C[C@H]1OC(=O)CCCN1CCN(c2cc3c(cc2F)c(=O)c(C(=O)O)cn3C2CC2)CC1	pIC50	4.43
CC(C)[C@@H]1CC[C@@H](C)C[C@H]1OC(=O)CCCCCN1CCN(c2cc3c(cc2F)c(=O)c(C(=O)O)cn3C2CC2)CC1	pIC50	4.34
Cc1ccc(C(C)C)c(OC(=O)CCCCN2CCN(c3cc4c(cc3F)c(=O)c(C(=O)O)cn4C3CC3)CC2)c1	pIC50	4.32
CC(C)[C@@H]1CC[C@@H](C)C[C@H]1OCC(=O)N1CCN(c2cc3c(cc2F)c(=O)c(C(=O)O)cn3C2CC2)CC1	pIC50	4.40
COc1cccc2c1C(=O)c1c(O)c3c(c(O)c1C2=O)C[C@@](O)(C(=O)CO)C[C@@H]3O[C@H]1C[C@H](N)[C@H](O)[C@H](C)O1 [Doxorubicin, reference compound]	pIC50	6.12

Lab note: next molecule to report on.
Return pIC50 for the following molecule: Cc1ccc(C(C)C)c(OC(=O)CCCCCN2CCN(c3cc4c(cc3F)c(=O)c(C(=O)O)cn4C3CC3)CC2)c1 4.45

* * *

System: S. epidermidis ATCC 12228
measurement.description: MIC, broth microdilution, standard strain
Type: cell-based, Staphylococcus epidermidis
reported.conditions: Staphylococcus epidermidis, ATCC12228, 19 h, 35 °C
observable: MIC (µg/mL)
Give a bare numeral; the unit µg/mL is implied.

molecule	target.or.system	MIC (µg/mL)
CC(C)[C@@H]1CC[C@@H](C)C[C@H]1OC(=O)CCN1CCN(c2cc3c(cc2F)c(=O)c(C(=O)O)cn3C2CC2)CC1 [Compound 3]	S. epidermidis ATCC 12228	4

Hello, please tell me recorded MIC for this one: CC(C)[C@@H]1CC[C@@H](C)C[C@H]1OC(=O)CCCN1CCN(c2cc3c(cc2F)c(=O)c(C(=O)O)cn3C2CC2)CC1 [Compound 4] 4

State its MIC: CC(C)[C@@H]1CC[C@@H](C)C[C@H]1OC(=O)CN1CCN(c2cc3c(cc2F)c(=O)c(C(=O)O)cn3C2CC2)CC1 [Compound 2] 16

# return recorded MIC for input CC(C)[C@@H]1CC[C@@H](C)C[C@H]1OCC(=O)N1CCN(c2cc3c(cc2F)c(=O)c(C(=O)O)cn3C2CC2)CC1 [Compound 1] 4

* * *

Tested on: S. aureus ATCC 25923
measurement.description: MIC, broth microdilution, standard strain
Assay type: cell-based, Staphylococcus aureus
reported.conditions: Staphylococcus aureus, ATCC25923, 19 h, 35 °C
Listed here: items and their measured MIC.
Give the number; µg/mL is assumed, so skip it.

// below: answered compounds
compound	MIC, µg/mL
Cc1ccc(C(C)C)c(OC(=O)CCCCCOC(=O)c2cn(C3CC3)c3cc(N4CCN(CCCCCC(=O)Oc5cc(C)ccc5C(C)C)CC4)c(F)cc3c2=O)c1 [Compound 16]	128
CC(C)[C@@H]1CC[C@@H](C)C[C@H]1OC(=O)CCCCCN1CCN(c2cc3c(cc2F)c(=O)c(C(=O)O)cn3C2CC2)CC1 [Compound 6]	8

Moving on to another compound below.
Please report the measured MIC for Cc1ccc(C(C)C)c(OCC(=O)N2CCN(c3cc4c(cc3F)c(=O)c(C(=O)O)cn4C3CC3)CC2)c1 [Compound 9] 2

* * *

Item-by-item account of IC50
Test system: HepG2 (human liver cancer)
measurement.description: MTT cytotoxicity assay
Assay type: cell-based
reported.conditions: Homo sapiens, HepG2, 72 h, mean SD
Numeric only. Scale: µM

Return IC50 for the following compound: CC(C)[C@@H]1CC[C@@H](C)C[C@H]1OC(=O)CCN1CCN(c2cc3c(cc2F)c(=O)c(C(=O)O)cn3C2CC2)CC1 [Compound 3] 36.8

Please list IC50 recorded for the compound CC(C)[C@@H]1CC[C@@H](C)C[C@H]1OC(=O)CCCCCN1CCN(c2cc3c(cc2F)c(=O)c(C(=O)O)cn3C2CC2)CC1 [Compound 6] 53.7

Answer with the recorded IC50 for the compound listed here: CC(C)[C@@H]1CC[C@@H](C)C[C@H]1OC(=O)CN1CCN(c2cc3c(cc2F)c(=O)c(C(=O)O)cn3C2CC2)CC1 [Compound 2] 16.5

Answer with the recorded IC50 of CC(C)[C@@H]1CC[C@@H](C)C[C@H]1OC(=O)CCCCN1CCN(c2cc3c(cc2F)c(=O)c(C(=O)O)cn3C2CC2)CC1 [Compound 5] only. 49.4

Give a short answer stating reported IC50 for CC(C)[C@@H]1CC[C@@H](C)C[C@H]1OCC(=O)N1CCN(c2cc3c(cc2F)c(=O)c(C(=O)O)cn3C2CC2)CC1 [Compound 1] . 23.1

Read off the recorded IC50 for Cc1ccc(C(C)C)c(OC(=O)CCCCN2CCN(c3cc4c(cc3F)c(=O)c(C(=O)O)cn4C3CC3)CC2)c1 [Compound 13] 33.8

Provide measured IC50 value, entry: CC(C)[C@@H]1CC[C@@H](C)C[C@H]1OC(=O)CCCCOC(=O)c1cn(C2CC2)c2cc(N3CCN(CCCCC(=O)O[C@@H]4C[C@H](C)CC[C@H]4C(C)C)CC3)c(F)cc2c1=O [Compound 7] 32.8

Return value of IC50 for input Cc1ccc(C(C)C)c(OC(=O)CCCCCN2CCN(c3cc4c(cc3F)c(=O)c(C(=O)O)cn4C3CC3)CC2)c1 [Compound 14] , no commentary. 44.4

* * *

Tested on: S. epidermidis ATCC 12228
measurement.description: MIC, broth microdilution, standard strain
Type: cell-based, Staphylococcus epidermidis
reported.conditions: Staphylococcus epidermidis, ATCC12228, 19 h, 35 °C
One threshold, 4 µg/mL, splits the recorded MIC values: lower ones are y, equal or higher ones are n.

compound	category.label
CC(C)[C@@H]1CC[C@@H](C)C[C@H]1OC(=O)CCCCOC(=O)c1cn(C2CC2)c2cc(N3CCN(CCCCC(=O)O[C@@H]4C[C@H](C)CC[C@H]4C(C)C)CC3)c(F)cc2c1=O [Compound 7]	n
CC(C)[C@@H]1CC[C@@H](C)C[C@H]1OC(=O)CCCCN1CCN(c2cc3c(cc2F)c(=O)c(C(=O)O)cn3C2CC2)CC1 [Compound 5]	n
Cc1ccc(C(C)C)c(OCC(=O)N2CCN(c3cc4c(cc3F)c(=O)c(C(=O)O)cn4C3CC3)CC2)c1 [Compound 9]	n
Cc1ccc(C(C)C)c(OC(=O)CCCCCN2CCN(c3cc4c(cc3F)c(=O)c(C(=O)O)cn4C3CC3)CC2)c1 [Compound 14]	y
Cc1ccc(C(C)C)c(OC(=O)CCCCN2CCN(c3cc4c(cc3F)c(=O)c(C(=O)O)cn4C3CC3)CC2)c1 [Compound 13]	y

Lab note: confirm whether the reported MIC for this compound is below 4 µg/mL, equality not counting. compound: Cc1ccc(C(C)C)c(OC(=O)CCCCCOC(=O)c2cn(C3CC3)c3cc(N4CCN(CCCCCC(=O)Oc5cc(C)ccc5C(C)C)CC4)c(F)cc3c2=O)c1 [Compound 16] n

Field: below-cutoff. Rule: recorded MIC strictly less than 4 µg/mL. Subject: CC(C)[C@@H]1CC[C@@H](C)C[C@H]1OC(=O)CCCCCN1CCN(c2cc3c(cc2F)c(=O)c(C(=O)O)cn3C2CC2)CC1 [Compound 6] n

Strictly below 4 µg/mL: is that where MIC of Cc1ccc(C(C)C)c(OC(=O)CCCN2CCN(c3cc4c(cc3F)c(=O)c(C(=O)O)cn4C3CC3)CC2)c1 [Compound 12] sits? y

Regarding CC(C)[C@@H]1CC[C@@H](C)C[C@H]1OC(=O)CCCCCOC(=O)c1cn(C2CC2)c2cc(N3CCN(CCCCCC(=O)O[C@@H]4C[C@H](C)CC[C@H]4C(C)C)CC3)c(F)cc2c1=O [Compound 8] , kindly confirm whether its MIC is beneath 4 µg/mL. n
